Source of measurements: ChEMBL document CHEMBL1156265

Molecular target: Cytochrome P450 3A4 (Homo sapiens, UniProt P08684)
Sequence (P08684 whole entry): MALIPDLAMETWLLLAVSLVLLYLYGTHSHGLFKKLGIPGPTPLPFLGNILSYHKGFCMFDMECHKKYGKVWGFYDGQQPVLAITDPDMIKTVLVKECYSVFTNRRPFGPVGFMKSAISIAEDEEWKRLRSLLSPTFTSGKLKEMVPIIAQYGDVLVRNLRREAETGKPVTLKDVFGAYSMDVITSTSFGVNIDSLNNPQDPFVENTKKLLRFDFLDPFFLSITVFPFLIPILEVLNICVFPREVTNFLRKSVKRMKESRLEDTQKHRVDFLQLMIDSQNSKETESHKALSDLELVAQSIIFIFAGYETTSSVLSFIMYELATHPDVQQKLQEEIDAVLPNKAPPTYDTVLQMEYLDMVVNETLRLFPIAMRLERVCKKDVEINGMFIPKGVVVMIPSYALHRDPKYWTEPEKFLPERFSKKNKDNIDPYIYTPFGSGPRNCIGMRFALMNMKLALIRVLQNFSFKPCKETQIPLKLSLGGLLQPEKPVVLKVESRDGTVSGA
reported_endpoint: IC50

Request: IC50, test system Cytochrome P450 3A4 (Homo sapiens, UniProt P08684), entry CC(C)(O)C(=O)c1oc2nc(-c3ccccc3Cl)c(-c3ccc(Cl)cc3)cc2c1NC(=O)CO
98 µM

====

Assay: Half life in rat
Format: ADME, organism-based
Conditions: in vivo
Classification field: satisfied = half-life at or over 4 h; not satisfied = half-life under 4 h.

Observe how each entry below is paired with its result.
CC(C)(C)C(=O)c1oc2nc(-c3ccccc3Cl)c(-c3ccc(Cl)cc3)cc2c1N = not satisfied
CC(=O)Nc1c(C(=O)C(C)(C)O)oc2nc(-c3ccccc3Cl)c(-c3ccc(Cl)cc3)cc12 = satisfied
CC(C)C(=O)c1oc2nc(-c3ccccc3Cl)c(-c3ccc(Cl)cc3)cc2c1NC(=O)CO = not satisfied
CC(C)(C)C(=O)c1oc2nc(-c3ccc(Cl)cc3Cl)c(-c3ccc(Cl)cc3)cc2c1N = satisfied
CC(C)(C)C(=O)c1oc2nc(-c3ccccc3Cl)c(-c3ccc(Cl)cc3)cc2c1NC(=O)CO = not satisfied

For the next question, use this compound.
Given CC(C)(O)C(=O)c1oc2nc(-c3ccccc3Cl)c(-c3ccc(Cl)cc3)cc2c1NC(=O)CO , state whether its half-life is at least 4 h.
satisfied

====

Assay: Metabolic stability in rat urine assessed as compound recovery at 1 mg/kg
Type: ADME, organism-based
Set-up: dose 1 mg/kg
Settings: read-out: Activity
reported_endpoint: dose excreted (%)
Numbers only here, please. The scale is %.

Param item = CC(C)(O)C(=O)c1oc2nc(-c3ccccc3Cl)c(-c3ccc(Cl)cc3)cc2c1NC(=O)CO ; retrieve measured dose excreted.
5

====

# half-life values compiled below
Test: Half life in rhesus monkey
Type: ADME, organism-based, Macaca mulatta
Conditions: in vivo
Numbers only here, please. The scale is h.

Example entries begin here.
CC(C)(C)C(=O)c1oc2nc(-c3ccc(Cl)cc3Cl)c(-c3ccc(Cl)cc3)cc2c1N = 2.4
CC(=O)Nc1c(C(=O)C(C)(C)O)oc2nc(-c3ccccc3Cl)c(-c3ccc(Cl)cc3)cc12 = 45

Param item = CC(C)(O)C(=O)c1oc2nc(-c3ccccc3Cl)c(-c3ccc(Cl)cc3)cc2c1NC(=O)CO ; retrieve measured half-life.
17

====

Target: GABA-A receptor; agonist GABA site
Test: Partial agonist activity at human alpha-1-beta-3-gamma-2 GABAA receptor expressed in […] cells
reported_endpoint: EC50 (nM)
Numbers only here, please. The scale is nM.

Param item = CC(C)(O)C(=O)c1oc2nc(-c3ccccc3Cl)c(-c3ccc(Cl)cc3)cc2c1NC(=O)CO ; retrieve measured EC50.
700

====

Experiment: Plasma clearance in dog
Format: ADME, organism-based, Canis lupus familiaris
reported_endpoint: clearance (mL/min/kg)
Numbers only here, please. The scale is mL/min/kg.

CC(C)(C)C(=O)c1oc2nc(-c3ccccc3Cl)c(-c3ccc(Cl)cc3)cc2c1NC(=O)CO = 3
CC(C)C(=O)c1oc2nc(-c3ccccc3Cl)c(-c3ccc(Cl)cc3)cc2c1NC(=O)CO = 4.9
CC(C)(C)C(=O)c1oc2nc(-c3ccc(Cl)cc3Cl)c(-c3ccc(Cl)cc3)cc2c1N = 7.3
CC(C)(O)C(=O)c1oc2nc(-c3ccccc3Cl)c(-c3ccc(Cl)cc3)cc2c1NC(=O)CO = 33

Param item = CC(=O)Nc1c(C(=O)C(C)(C)O)oc2nc(-c3ccccc3Cl)c(-c3ccc(Cl)cc3)cc12 ; retrieve measured clearance.
5

====

Assay: Drug level in rat plasma at 1 mg/kg, iv after 4 hrs
Format: ADME, organism-based
Parameters: dose 1 mg/kg, route intravenous
Conditions: read-out: Drug uptake
reported_endpoint: concentration at 4 h (nM)
Numbers only here, please. The scale is nM.

Example entries begin here.
CC(C)C(=O)c1oc2nc(-c3ccccc3Cl)c(-c3ccc(Cl)cc3)cc2c1NC(=O)CO = 160
CC(C)(C)C(=O)c1oc2nc(-c3ccccc3Cl)c(-c3ccc(Cl)cc3)cc2c1NC(=O)CO = 49
CC(C)(C)C(=O)c1oc2nc(-c3ccccc3Cl)c(-c3ccc(Cl)cc3)cc2c1N = 130
CC(C)(C)C(=O)c1oc2nc(-c3ccc(Cl)cc3Cl)c(-c3ccc(Cl)cc3)cc2c1N = 220
CC(C)(O)C(=O)c1oc2nc(-c3ccccc3Cl)c(-c3ccc(Cl)cc3)cc2c1NC(=O)CO = 147

Now let's try a different one.
Param item = CC(=O)Nc1c(C(=O)C(C)(C)O)oc2nc(-c3ccccc3Cl)c(-c3ccc(Cl)cc3)cc12 ; retrieve measured concentration at 4 h.
72

====

Test: Drug level in rat brain at 1 mg/kg, iv after 4 hrs
Format: ADME, organism-based
Set-up: dose 1 mg/kg, route intravenous
Details: read-out: Drug uptake
# concentration at 4 h values compiled below
Numbers only here, please. The scale is nM.

CC(C)C(=O)c1oc2nc(-c3ccccc3Cl)c(-c3ccc(Cl)cc3)cc2c1NC(=O)CO = 150

Param item = CC(=O)Nc1c(C(=O)C(C)(C)O)oc2nc(-c3ccccc3Cl)c(-c3ccc(Cl)cc3)cc12 ; retrieve measured concentration at 4 h.
56

Param item = CC(C)(O)C(=O)c1oc2nc(-c3ccccc3Cl)c(-c3ccc(Cl)cc3)cc2c1NC(=O)CO ; retrieve measured concentration at 4 h.
94

Param item = CC(C)(C)C(=O)c1oc2nc(-c3ccc(Cl)cc3Cl)c(-c3ccc(Cl)cc3)cc2c1N ; retrieve measured concentration at 4 h.
220

Param item = CC(C)(C)C(=O)c1oc2nc(-c3ccccc3Cl)c(-c3ccc(Cl)cc3)cc2c1N ; retrieve measured concentration at 4 h.
290

Param item = CC(C)(C)C(=O)c1oc2nc(-c3ccccc3Cl)c(-c3ccc(Cl)cc3)cc2c1NC(=O)CO ; retrieve measured concentration at 4 h.
86

====

Biological target: Cannabinoid receptor 2 (Homo sapiens, UniProt P34972)
Sequence (P34972 whole entry): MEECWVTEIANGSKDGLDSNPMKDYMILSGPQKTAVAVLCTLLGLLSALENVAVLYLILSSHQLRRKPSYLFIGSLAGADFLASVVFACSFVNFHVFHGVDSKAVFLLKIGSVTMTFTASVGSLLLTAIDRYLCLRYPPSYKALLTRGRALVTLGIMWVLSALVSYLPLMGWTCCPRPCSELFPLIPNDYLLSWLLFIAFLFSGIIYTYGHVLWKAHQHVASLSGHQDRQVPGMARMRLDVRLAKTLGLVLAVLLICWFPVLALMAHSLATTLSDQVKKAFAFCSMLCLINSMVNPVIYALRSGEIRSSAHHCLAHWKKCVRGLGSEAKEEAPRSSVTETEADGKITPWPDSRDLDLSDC
# IC50 values compiled below
Numbers only here, please. The scale is µM.

Example entries begin here.
CC(C)(C)C(=O)c1oc2nc(-c3ccccc3Cl)c(-c3ccc(Cl)cc3)cc2c1N = 1.9
CC(=O)Nc1c(C(=O)C(C)(C)O)oc2nc(-c3ccccc3Cl)c(-c3ccc(Cl)cc3)cc12 = 5.4
CC(C)C(=O)c1oc2nc(-c3ccccc3Cl)c(-c3ccc(Cl)cc3)cc2c1NC(=O)CO = 5.1
CC(C)(C)C(=O)c1oc2nc(-c3ccccc3Cl)c(-c3ccc(Cl)cc3)cc2c1NC(=O)CO = 3.4

Param item = CCC(=O)c1oc2nc(-c3ccc(Cl)cc3Cl)c(-c3ccc(Cl)cc3)cc2c1N ; retrieve measured IC50.
0.36

Param item = Nc1c(C(=O)c2ccccc2)oc2nc(-c3ccc(Cl)cc3Cl)c(-c3ccc(Cl)cc3)cc12 ; retrieve measured IC50.
0.44

Param item = CC(C)(C)C(=O)c1oc2nc(-c3ccc(Cl)cc3Cl)c(-c3ccc(Cl)cc3)cc2c1N ; retrieve measured IC50.
0.44

Param item = CC(C)C(=O)c1oc2nc(-c3ccccc3Cl)c(-c3ccc(Cl)cc3)cc2c1N ; retrieve measured IC50.
1.3

Param item = CNCC(=O)Nc1c(C(=O)C(C)(C)C)oc2nc(-c3ccccc3Cl)c(-c3ccc(Cl)cc3)cc12 ; retrieve measured IC50.
3.3

Param item = CC(C)C(=O)c1oc2nc(-c3ccc(Cl)cc3Cl)c(-c3ccc(Cl)cc3)cc2c1N ; retrieve measured IC50.
0.64

====

Target: Cannabinoid receptor 1 (Homo sapiens, UniProt P21554)
Sequence (P21554 whole entry): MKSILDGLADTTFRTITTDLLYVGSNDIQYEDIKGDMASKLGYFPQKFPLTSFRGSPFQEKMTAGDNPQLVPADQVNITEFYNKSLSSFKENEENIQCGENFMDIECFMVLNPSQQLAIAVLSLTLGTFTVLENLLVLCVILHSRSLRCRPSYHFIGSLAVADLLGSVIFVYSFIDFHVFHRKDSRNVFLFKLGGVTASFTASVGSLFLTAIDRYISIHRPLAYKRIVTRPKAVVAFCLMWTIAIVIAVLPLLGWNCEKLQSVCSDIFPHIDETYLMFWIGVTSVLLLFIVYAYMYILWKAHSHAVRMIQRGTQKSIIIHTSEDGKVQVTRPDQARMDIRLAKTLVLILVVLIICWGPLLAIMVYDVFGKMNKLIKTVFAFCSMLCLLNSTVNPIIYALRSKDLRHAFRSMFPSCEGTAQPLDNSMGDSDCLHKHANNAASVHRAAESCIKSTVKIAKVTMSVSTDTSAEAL
reported_endpoint: IC50 (nM)
Numbers only here, please. The scale is nM.

Request: IC50, test system Cannabinoid receptor 1 (Homo sapiens, UniProt P21554), entry CC(C)(C)C(=O)c1oc2nc(-c3ccccc3Cl)c(-c3ccc(Cl)cc3)cc2c1NC(=O)CO
1.2

Request: IC50, test system Cannabinoid receptor 1 (Homo sapiens, UniProt P21554), entry CC(=O)Nc1c(C(=O)C(C)(C)C)oc2nc(-c3ccccc3Cl)c(-c3ccc(Cl)cc3)cc12
0.58

Request: IC50, test system Cannabinoid receptor 1 (Homo sapiens, UniProt P21554), entry CNCC(=O)Nc1c(C(=O)C(C)(C)C)oc2nc(-c3ccccc3Cl)c(-c3ccc(Cl)cc3)cc12
1.2

====

Molecular target: Voltage-gated inwardly rectifying potassium channel KCNH2 (Homo sapiens)
Sequence (Q12809 whole entry): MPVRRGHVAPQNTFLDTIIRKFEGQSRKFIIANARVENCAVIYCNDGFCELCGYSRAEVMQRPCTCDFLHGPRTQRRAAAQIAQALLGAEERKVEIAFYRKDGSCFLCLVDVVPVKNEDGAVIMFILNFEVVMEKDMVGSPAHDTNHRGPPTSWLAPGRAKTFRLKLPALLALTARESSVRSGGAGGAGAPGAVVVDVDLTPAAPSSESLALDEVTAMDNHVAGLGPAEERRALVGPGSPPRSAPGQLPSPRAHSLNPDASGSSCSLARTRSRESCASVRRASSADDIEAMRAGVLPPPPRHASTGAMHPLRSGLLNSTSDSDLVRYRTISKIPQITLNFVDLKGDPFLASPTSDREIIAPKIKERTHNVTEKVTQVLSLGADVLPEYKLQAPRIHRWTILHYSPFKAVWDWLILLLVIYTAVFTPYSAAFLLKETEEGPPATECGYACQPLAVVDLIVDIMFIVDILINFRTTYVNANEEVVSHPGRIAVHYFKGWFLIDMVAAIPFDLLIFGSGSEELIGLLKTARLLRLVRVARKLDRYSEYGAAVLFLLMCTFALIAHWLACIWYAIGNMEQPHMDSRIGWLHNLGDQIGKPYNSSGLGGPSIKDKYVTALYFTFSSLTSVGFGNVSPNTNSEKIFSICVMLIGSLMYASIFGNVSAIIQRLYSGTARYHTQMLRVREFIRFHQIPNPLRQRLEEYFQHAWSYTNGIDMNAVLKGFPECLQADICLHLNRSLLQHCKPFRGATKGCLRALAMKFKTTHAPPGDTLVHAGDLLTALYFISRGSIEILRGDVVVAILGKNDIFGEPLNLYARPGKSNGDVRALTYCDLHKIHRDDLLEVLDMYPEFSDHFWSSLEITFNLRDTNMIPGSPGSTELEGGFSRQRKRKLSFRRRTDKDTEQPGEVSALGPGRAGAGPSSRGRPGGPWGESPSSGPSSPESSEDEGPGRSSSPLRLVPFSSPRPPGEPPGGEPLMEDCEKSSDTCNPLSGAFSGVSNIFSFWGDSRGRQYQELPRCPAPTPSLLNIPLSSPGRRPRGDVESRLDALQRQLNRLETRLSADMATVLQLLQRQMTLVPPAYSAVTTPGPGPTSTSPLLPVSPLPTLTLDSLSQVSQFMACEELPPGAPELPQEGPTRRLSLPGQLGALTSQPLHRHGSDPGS
reported_endpoint: IC50 (µM)
Numbers only here, please. The scale is µM.

Request: IC50, test system Voltage-gated inwardly rectifying potassium channel KCNH2 (Homo sapiens), entry CC(C)(O)C(=O)c1oc2nc(-c3ccccc3Cl)c(-c3ccc(Cl)cc3)cc2c1NC(=O)CO
6.6
